Measured pIC50 accompanies every entry in the list below.
# Assay system: human GOAT (Homo sapiens (Human))
# Sequence (Q96T53 whole entry): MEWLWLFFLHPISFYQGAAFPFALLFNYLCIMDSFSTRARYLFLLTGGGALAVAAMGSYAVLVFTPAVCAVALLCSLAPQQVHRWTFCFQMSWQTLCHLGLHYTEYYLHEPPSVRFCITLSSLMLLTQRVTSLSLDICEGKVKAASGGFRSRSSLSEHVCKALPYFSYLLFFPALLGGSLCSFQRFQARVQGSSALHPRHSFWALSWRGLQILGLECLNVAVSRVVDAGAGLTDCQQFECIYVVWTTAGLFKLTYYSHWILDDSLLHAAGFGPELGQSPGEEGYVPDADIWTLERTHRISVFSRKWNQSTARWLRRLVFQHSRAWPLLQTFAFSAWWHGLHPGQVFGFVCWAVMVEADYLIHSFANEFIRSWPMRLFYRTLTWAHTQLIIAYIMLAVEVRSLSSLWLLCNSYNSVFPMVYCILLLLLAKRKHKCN
# Test name: In vitro cell free human GOAT enzymatic assay
# Experimental setup: cell free human GOAT enzyme, ELISA readout of acyl-ghrelin
pIC50: −log10 of the molar value.
Outcome measure: pIC50

1) Cc1nc(N)c(CCC2CCN(C(=O)[C@H](C)NC(=O)c3cnc(C)s3)CC2)c(Cl)n1; 7.02
2) Cc1nc(N)c(CCC2CCCN(C(=O)[C@H](C)NC(=O)c3ccncc3)CC2)c(Cl)n1 (some centres unmarked); 6.24
3) COC(=O)N[C@@H](C)C(=O)N1CCC(CCc2c(N)nc(C)nc2Cl)CC1; 6.83
4) Cc1nc(N)c(CCC2CCN(C(=O)[C@H](C)NC(=O)c3ccnn3C)CC2)c(Cl)n1; 7.16
5) Cc1nc(Cl)nc(N)c1CCC1CCN(C(=O)[C@H](C)NC(=O)c2cn[nH]c2C)CC1; 7.26
